Parameter IC50: see the listing below.
- test target: HCV NS3/4A protease A156T mutant (Hepatitis C virus genotype 1b, UniProt P26663, A1182T)
- assay procedure: HCV NS3/4A protease time-resolved fluorescence (TRF) assay, Ki against A156T mutant
- Type: biochemical
- stated conditions: NS3/4A protease TRF assay, A156T mutant enzyme 0.4 nM; K+ salt; read-out: IC50 [gt-1b A156T]
Write the answer as a number in nM, unit excluded.

Request: Specify IC50 for CC[C@H](C)OC(=O)N[C@H]1CCCCC/C=C\[C@@H]2C[C@@]2(C(=O)NS(=O)(=O)C2(C)CC2)NC(=O)[C@@H]2C[C@]3(CCc4c(c(C(F)(F)F)nc5ccc(OC)cc45)O3)CN2C1=O [Example 460] and stop.
Response: 2.74
